- EXPERIMENTAL_DETAILS: self-splicing fitness, log relative to wild type (ln ratio); higher = more splicing; Tetrahymena group I intron in knt gene, E. coli kanamycin selection, DiMSum; sequences stand for … in CUCUCU…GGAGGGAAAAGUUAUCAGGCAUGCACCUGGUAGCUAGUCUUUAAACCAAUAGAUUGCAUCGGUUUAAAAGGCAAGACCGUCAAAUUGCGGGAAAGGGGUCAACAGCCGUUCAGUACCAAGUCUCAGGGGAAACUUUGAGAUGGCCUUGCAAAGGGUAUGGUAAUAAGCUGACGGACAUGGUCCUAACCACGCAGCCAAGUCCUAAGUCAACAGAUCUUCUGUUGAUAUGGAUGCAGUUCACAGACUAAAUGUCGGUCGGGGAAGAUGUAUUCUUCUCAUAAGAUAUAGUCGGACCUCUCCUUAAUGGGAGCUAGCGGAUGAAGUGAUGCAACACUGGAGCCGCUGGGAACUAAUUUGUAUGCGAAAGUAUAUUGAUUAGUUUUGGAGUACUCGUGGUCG;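 further: selection with 25 µg/mL kanamycin versus none on LB agar overnight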
- CONDITION_SET: 30 °C
PROPERTY_MEASURED: self-splicing fitness (ln)
Write the number on its own, no unit after it.

Suppose we examine the sequence `AGGCAGCAAUAUUACGAGGA` ; what self-splicing fitness (ln) value has been reported?
-3.31

Let us now turn to `UGGCAGCAAUAUUACGUAAC`
-3.2

Let us now turn to `CUGCAGCAAUAUUACGGGUC`
-3.51

Let us now turn to `GUGGAGCAAUAUUACGGUAC`
-2.81

Let us now turn to `GCAUAGCAAUAUUACGAUGG`
-1.01

Let us now turn to `CUGUAGCAAUAUUACGUAUU`
-4.45

Let us now turn to `GGCUAGCAAUAUUACGUCGU`
0.26

Let us now turn to `GAUGAGCAAUAUUACGGGCA`
-1.87

###

- EXPERIMENTAL_DETAILS: self-splicing fitness, log relative to wild type (ln ratio); higher = more splicing; Tetrahymena group I intron in knt gene, E. coli kanamycin selection, DiMSum; sequences stand for … in CUCUCU…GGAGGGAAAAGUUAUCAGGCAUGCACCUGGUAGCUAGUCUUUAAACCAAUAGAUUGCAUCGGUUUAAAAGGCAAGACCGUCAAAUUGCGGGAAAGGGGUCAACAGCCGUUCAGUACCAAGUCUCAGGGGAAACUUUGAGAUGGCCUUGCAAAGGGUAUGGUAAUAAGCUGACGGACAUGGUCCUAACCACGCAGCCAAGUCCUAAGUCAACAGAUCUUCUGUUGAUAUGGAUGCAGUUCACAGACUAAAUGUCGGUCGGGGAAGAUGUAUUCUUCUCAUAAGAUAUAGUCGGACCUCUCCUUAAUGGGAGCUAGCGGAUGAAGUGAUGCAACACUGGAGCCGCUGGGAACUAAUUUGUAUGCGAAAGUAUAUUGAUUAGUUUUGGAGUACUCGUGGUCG
- CONDITION_SET: 37 °C
Would you mind telling me the reported self-splicing fitness (ln) of each entry?
Write the number on its own, no unit after it.

Suppose we examine the sequence `AGAGAGCAAUAUUACGUCAC` ; what self-splicing fitness (ln) value has been reported?
-0.851

Let us now turn to `GGAGAGCAAUAUUACGUGCA`
-2.03

Let us now turn to `GACAAGCAAUAUUACGCGCC`
-1.08

Let us now turn to `AGCAAGCAAUAUUACGAAGU`
-1.58

Let us now turn to `CUUCAGCAAUAUUACGAGCG`
-0.136

Let us now turn to `CAGUAGCAAUAUUACGUGUC`
-3.17

Let us now turn to `AGCCAGCAAUAUUACGGGGC`
-3.13

Let us now turn to `UUUAAGCAAUAUUACGAUGU`
-1.96

Let us now turn to `CCCCAGCAAUAUUACGAUAA`
-1.49

Let us now turn to `AAGAAGCAAUAUUACGUAGU`
-1.14

Let us now turn to `CGUUAGCAAUAUUACGAGAG`
0.0196

Let us now turn to `ACCUAGCAAUAUUACGACGU`
0.371

Let us now turn to `CUAGAGCAAUAUUACGUACG`
0.268

Let us now turn to `UAUGAGCAAUAUUACGUAAA`
-1.59

Let us now turn to `UUUGAGCAAUAUUACGACAG`
-1.81

Let us now turn to `UAAUAGCAAUAUUACGUAUA`
-1.17

Let us now turn to `AGUUAGCAAUAUUACGGCGC`
0.14

Let us now turn to `CGAUAGCAAUAUUACGCCGG`
-0.0292

Let us now turn to `UAUUAGCAAUAUUACGCUUA`
-0.89

Let us now turn to `UAACAGCAAUAUUACGCGGA`
0.0542

Let us now turn to `GAAAAGCAAUAUUACGUUUU`
-2.4

Let us now turn to `GCGUAGCAAUAUUACGUGGU`
-3.64

Let us now turn to `UUGUAGCAAUAUUACGAUCU`
-2.38

Let us now turn to `UCAAAGCAAUAUUACGUGCU`
-2.93

Let us now turn to `CAAAAGCAAUAUUACGACCC`
-1.72

Let us now turn to `ACACAGCAAUAUUACGGCAG`
-0.371

Let us now turn to `GUCGAGCAAUAUUACGGCGC`
-0.631

Let us now turn to `UGAAAGCAAUAUUACGAUAU`
-1.21

Let us now turn to `UUGCAGCAAUAUUACGGCCG`
-0.459

Let us now turn to `GCUCAGCAAUAUUACGGACU`
0.485

Let us now turn to `CCACAGCAAUAUUACGAUCG`
0.703

Let us now turn to `CACGAGCAAUAUUACGCUAA`
-2.75

Let us now turn to `AGUUAGCAAUAUUACGGAUA`
-1.42

Let us now turn to `UGCGAGCAAUAUUACGAAGG`
-1.91

Let us now turn to `UCAGAGCAAUAUUACGUAAG`
-1.82

Let us now turn to `GGUCAGCAAUAUUACGAUAA`
0.447

Let us now turn to `ACCCAGCAAUAUUACGUGAC`
-1.25

Let us now turn to `CACGAGCAAUAUUACGGGAA`
-3.1

Let us now turn to `GUGCAGCAAUAUUACGAAAA`
-2.49

Let us now turn to `ACGCAGCAAUAUUACGUGAG`
-0.552

Let us now turn to `UACUAGCAAUAUUACGCUUU`
-2.16

Let us now turn to `ACGAAGCAAUAUUACGCCCC`
-2.24

Let us now turn to `CCUCAGCAAUAUUACGAAAU`
-2.15

Let us now turn to `UCCGAGCAAUAUUACGCUCA`
-2.3

Let us now turn to `GCCAAGCAAUAUUACGUGUA`
-0.64

Let us now turn to `GGCUAGCAAUAUUACGGGUU`
-0.879

Let us now turn to `GCAUAGCAAUAUUACGGGGA`
-2.37

Let us now turn to `ACGUAGCAAUAUUACGAUGA`
-0.268

Let us now turn to `UAACAGCAAUAUUACGUCGU`
-2.04

Let us now turn to `AUUAAGCAAUAUUACGCUAG`
-0.736

Let us now turn to `AUGCAGCAAUAUUACGAGGC`
-2.34

Let us now turn to `CUCGAGCAAUAUUACGGCGU`
-1.61

Let us now turn to `UUCCAGCAAUAUUACGCAUU`
-0.682

Let us now turn to `CAGUAGCAAUAUUACGGUUU`
-0.724

Let us now turn to `UUUUAGCAAUAUUACGUCAG`
-0.297

Let us now turn to `UCUUAGCAAUAUUACGGCGA`
-0.295

Let us now turn to `CACCAGCAAUAUUACGCUUC`
-1.45

Let us now turn to `UGGGAGCAAUAUUACGGUCG`
-0.961

Let us now turn to `UUUAAGCAAUAUUACGCGAC`
-2.75

Let us now turn to `AGUGAGCAAUAUUACGCUAA`
-2.09

Let us now turn to `GUCAAGCAAUAUUACGGGCG`
-0.583

Let us now turn to `UAGGAGCAAUAUUACGUAGG`
-1.15

Let us now turn to `UGGCAGCAAUAUUACGAUUC`
-1.46

Let us now turn to `GGUAAGCAAUAUUACGCCCA`
-1.01

Let us now turn to `AAGCAGCAAUAUUACGCUGA`
-1.98

Let us now turn to `ACCCAGCAAUAUUACGCGUG`
-1.9

Let us now turn to `AAAUAGCAAUAUUACGGUAU`
-0.496
